Origin of measurements: paper PMC10085679

Here the recorded IC50 is given for each entry.
target: T1, AIM2HIN (Homo sapiens, UniProt O14862 144-343)
T1 sequence: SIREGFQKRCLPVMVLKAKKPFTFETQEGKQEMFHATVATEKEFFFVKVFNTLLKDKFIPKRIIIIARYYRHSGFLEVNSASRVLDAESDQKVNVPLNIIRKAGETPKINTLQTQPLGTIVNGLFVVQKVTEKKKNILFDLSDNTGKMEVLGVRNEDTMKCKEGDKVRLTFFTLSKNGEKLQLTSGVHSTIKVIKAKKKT
assay-notes: competition fluorescence anisotropy; unlabelled competitor against 6 nM 60-bp FAM-dsDNA, 400 nM protein; 160 mM KCl (60 mM KCl for IFI16HinAB); buffer, pH and temperature not given in the available text
measurement-context: protein: recombinant
metric-name: IC50 (nM)

1. 60-base ssDNA_T (ssDNA) DNA: TTTCTTTCTTTCTTTCTTTCTTTCTTTCTTTCTTTCTTTCTTTCTTTCTTTCTTTCTTTC    1000
2. 60-bp dsDNA (dsDNA) DNA 1: TAAGACACGATGCGATAAAATCTGTTTGTAAAATTTATTAAGGGTACAAATTGCCCTAGC DNA 2: GCTAGGGCAATTTGTACCCTTAATAAATTTTACAAACAGATTTTATCGCATCGTGTCTTA    268
3. 60-base ssRNA_U (ssRNA) RNA: UUUCUUUCUUUCUUUCUUUCUUUCUUUCUUUCUUUCUUUCUUUCUUUCUUUCUUUCUUUC    741
4. 60-bp DNA:RNA hybrid (DNA:RNA) DNA: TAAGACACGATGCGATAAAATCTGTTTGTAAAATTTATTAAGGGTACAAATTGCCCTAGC RNA: GCUAGGGCAAUUUGUACCCUUAAUAAAUUUUACAAACAGAUUUUAUCGCAUCGUGUCUUA    350
5. 60-base ssRNA_A (ssRNA) RNA: AAAGAAAGAAAGAAAGAAAGAAAGAAAGAAAGAAAGAAAGAAAGAAAGAAAGAAAGAAAG    1230
6. 60-bp dsRNA (dsRNA) RNA 1: UAAGACACGAUGCGAUAAAAUCUGUUUGUAAAAUUUAUUAAGGGUACAAAUUGCCCUAGC RNA 2: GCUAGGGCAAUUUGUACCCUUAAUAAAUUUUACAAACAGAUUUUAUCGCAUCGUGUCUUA    281
